Where these numbers come from: patent US8703961B2

Target: SRC (Homo sapiens)
Sequence (P12931 whole entry, species assumed): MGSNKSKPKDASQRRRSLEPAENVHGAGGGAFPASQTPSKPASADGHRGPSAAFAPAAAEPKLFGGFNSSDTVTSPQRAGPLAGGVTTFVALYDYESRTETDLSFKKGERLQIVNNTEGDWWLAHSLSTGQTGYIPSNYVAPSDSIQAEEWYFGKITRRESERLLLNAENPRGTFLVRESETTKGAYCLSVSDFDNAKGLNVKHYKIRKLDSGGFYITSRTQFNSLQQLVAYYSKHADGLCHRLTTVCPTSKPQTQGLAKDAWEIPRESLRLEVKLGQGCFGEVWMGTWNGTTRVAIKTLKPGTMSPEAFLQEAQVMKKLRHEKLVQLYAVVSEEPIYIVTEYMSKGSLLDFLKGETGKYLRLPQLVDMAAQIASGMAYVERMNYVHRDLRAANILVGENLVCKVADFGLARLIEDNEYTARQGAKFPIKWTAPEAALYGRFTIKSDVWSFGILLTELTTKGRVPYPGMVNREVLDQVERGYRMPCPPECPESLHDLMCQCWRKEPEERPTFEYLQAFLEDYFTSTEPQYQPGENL
Provide the recorded IC50 for the entries that follow.

                                   compound           val
0  CC(C)(C)OC(=O)Nc1ncsc1C#CCN1C(=O)c2ccccc2C1=O  10 to 100 µM
1               Nc1ncsc1C#Cc1cnc2[nH]ccc2c1  10 to 100 µM
2  c1ccc(Cc2c[nH]c3ncsc23)cc1 [Compound A7, 6-benzyl-4H-pyrrolo[2,3-d]thiazole]    1 to 10 µM
3                    Nc1ncsc1C#Cc1cccc(O)c1    1 to 10 µM

Let us move to another entry and its IC50.
Field request: IC50 | item: CC(C)(C)OC(=O)Nc1nc(-c2ccncc2)sc1C#CCN1CCOCC1
1 to 10 µM

###

Please go through the items and note down their IC50.
Target: PRKAA1 (Homo sapiens, UniProt Q13131)
Construct: purchased
Sequence (Q13131 whole entry, species assumed): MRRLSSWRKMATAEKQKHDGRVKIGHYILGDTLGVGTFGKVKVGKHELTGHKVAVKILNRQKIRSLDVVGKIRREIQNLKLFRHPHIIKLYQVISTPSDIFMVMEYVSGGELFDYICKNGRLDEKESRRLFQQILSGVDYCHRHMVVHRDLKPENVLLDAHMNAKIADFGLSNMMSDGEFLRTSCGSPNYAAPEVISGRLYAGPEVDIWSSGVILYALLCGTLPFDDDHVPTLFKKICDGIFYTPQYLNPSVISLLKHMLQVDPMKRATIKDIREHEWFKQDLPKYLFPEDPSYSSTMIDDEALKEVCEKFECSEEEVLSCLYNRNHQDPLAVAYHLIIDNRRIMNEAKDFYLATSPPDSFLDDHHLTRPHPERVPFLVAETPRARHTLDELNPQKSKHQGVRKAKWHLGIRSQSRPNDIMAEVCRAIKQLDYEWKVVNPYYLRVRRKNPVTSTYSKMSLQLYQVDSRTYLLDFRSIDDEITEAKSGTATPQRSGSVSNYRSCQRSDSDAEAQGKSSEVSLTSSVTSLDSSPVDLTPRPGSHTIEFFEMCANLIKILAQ
Sequence (Q9Y478 whole entry partner, species assumed): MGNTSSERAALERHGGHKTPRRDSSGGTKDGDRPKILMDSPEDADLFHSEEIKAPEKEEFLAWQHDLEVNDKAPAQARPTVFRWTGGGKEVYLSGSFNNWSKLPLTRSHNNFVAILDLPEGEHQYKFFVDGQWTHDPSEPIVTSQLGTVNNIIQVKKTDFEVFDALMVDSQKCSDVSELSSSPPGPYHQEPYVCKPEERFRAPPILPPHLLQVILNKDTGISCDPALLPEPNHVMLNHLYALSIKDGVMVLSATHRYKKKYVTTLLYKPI
Sequence (P54619 whole entry partner, species assumed): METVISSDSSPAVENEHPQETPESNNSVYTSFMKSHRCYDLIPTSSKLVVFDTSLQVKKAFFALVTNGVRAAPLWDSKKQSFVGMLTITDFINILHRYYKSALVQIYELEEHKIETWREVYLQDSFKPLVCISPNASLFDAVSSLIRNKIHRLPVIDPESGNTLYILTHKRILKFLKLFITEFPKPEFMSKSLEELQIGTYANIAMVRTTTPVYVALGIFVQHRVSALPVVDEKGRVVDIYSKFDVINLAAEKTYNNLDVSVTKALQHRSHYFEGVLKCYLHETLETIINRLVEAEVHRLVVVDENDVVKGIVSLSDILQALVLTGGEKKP
Assay: filter binding kinase assay
Format: biochemical
Conditions: derived from % inhibition at 1 μM

In [3]: df
Out[3]:
                                   molecule  readout_type           val
0  c1ccc(Cc2c[nH]c3ncsc23)cc1 [Compound A7, 6-benzyl-4H-pyrrolo[2,3-d]thiazole]          IC50  10 to 100 µM
1  CC(C)(C)OC(=O)Nc1nc(-c2ccncc2)sc1C#CCN1CCOCC1          IC50  10 to 100 µM
2                    Nc1ncsc1C#Cc1cccc(O)c1          IC50    1 to 10 µM
3  CC(C)(C)OC(=O)Nc1ncsc1C#CCN1C(=O)c2ccccc2C1=O          IC50  10 to 100 µM

Switching to the query record.
Recorded IC50 for Nc1ncsc1C#Cc1cnc2[nH]ccc2c1 , please?
10 to 100 µM

###

Lab note: IC50 readings collected with MAPK10 (Homo sapiens, UniProt P53779) for the following molecules.
Sequence (P53779 whole entry, species assumed): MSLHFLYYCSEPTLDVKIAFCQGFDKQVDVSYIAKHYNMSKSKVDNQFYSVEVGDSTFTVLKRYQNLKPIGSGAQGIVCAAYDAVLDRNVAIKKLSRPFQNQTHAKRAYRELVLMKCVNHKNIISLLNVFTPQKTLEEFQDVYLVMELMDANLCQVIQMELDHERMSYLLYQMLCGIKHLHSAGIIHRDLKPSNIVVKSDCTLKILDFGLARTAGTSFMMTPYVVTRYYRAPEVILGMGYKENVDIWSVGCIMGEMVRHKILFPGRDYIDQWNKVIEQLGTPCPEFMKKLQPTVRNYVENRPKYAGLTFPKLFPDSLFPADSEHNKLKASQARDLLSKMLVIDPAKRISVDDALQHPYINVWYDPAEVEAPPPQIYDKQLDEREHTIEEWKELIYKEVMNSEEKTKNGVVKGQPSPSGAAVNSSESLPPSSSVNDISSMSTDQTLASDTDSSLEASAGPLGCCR

>>> df
                                   molecule               val
0  Nc1ncsc1C#Cc1cccc(O)c1 [Compound A27, 3-(4-aminothiazol-5-ylethynyl)phenol]  1000 to 10000 nM
1  CC(C)(C)OC(=O)Nc1nc(-c2ccncc2)sc1C#CCN1CCOCC1 [Compound A25]         > 1000 nM

Would you mind giving IC50 for every molecule in the list below?
1. CC(C)(C)OC(=O)Nc1ncsc1C#CCN1C(=O)c2ccccc2C1=O [Compound A26]
2. Nc1ncsc1C#Cc1cnc2[nH]ccc2c1 [Compound A22]
3. c1ccc(Cc2c[nH]c3ncsc23)cc1 [Compound A7, 6-benzyl-4H-pyrrolo[2,3-d]thiazole]

["> 1000 nM", "> 1000 nM", "> 1000 nM"]

###

Target protein (sequence): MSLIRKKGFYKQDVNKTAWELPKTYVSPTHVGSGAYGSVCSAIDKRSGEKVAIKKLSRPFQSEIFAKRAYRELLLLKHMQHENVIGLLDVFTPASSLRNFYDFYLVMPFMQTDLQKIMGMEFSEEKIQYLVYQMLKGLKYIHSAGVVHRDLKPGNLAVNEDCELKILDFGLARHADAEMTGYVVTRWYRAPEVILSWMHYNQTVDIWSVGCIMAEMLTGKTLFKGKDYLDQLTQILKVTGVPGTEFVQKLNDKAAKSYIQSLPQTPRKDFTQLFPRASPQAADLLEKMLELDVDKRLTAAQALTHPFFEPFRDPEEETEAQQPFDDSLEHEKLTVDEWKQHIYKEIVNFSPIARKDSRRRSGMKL
I'd appreciate it if you could supply IC50 values for the items below.

Examples from the recorded data:
>>> print(df.to_string())
                                   compound  readout_type           val
0  c1ccc(Cc2c[nH]c3ncsc23)cc1 [Compound A7, 6-benzyl-4H-pyrrolo[2,3-d]thiazole]          IC50    1 to 10 µM
1  Nc1ncsc1C#Cc1cccc(O)c1 [Compound A27, 3-(4-aminothiazol-5-ylethynyl)phenol]          IC50    1 to 10 µM
2  CC(C)(C)OC(=O)Nc1ncsc1C#CCN1C(=O)c2ccccc2C1=O [Compound A26]          IC50  10 to 100 µM

// batch mode: one IC50 value per listed entry
1. CC(C)(C)OC(=O)Nc1nc(-c2ccncc2)sc1C#CCN1CCOCC1 [Compound A25]
2. Nc1ncsc1C#Cc1cnc2[nH]ccc2c1 [Compound A22]

1. > 1 µM
2. 10 to 100 µM
